Organism: Rattus norvegicus
MEASUREMENT NOTES: DrugMatrix - Regimen: Daily Repeat
Type: toxicity, organism-based, Sprague-Dawley
Design: regimen Daily Repeat, gender Male, age 6-8 weeks
TEST CONTEXT: in vivo, sc, 0 mg/kg, 120 h, tissue Plasma, route subcutaneous, dose level Control, time 5 day, […]
OBSERVABLE: BLOOD UREA NITROGEN (mg/dL)
Numbers only here, please. The scale is mg/dL.

Worked cases, answers included:
INSERT INTO measurements (molecule, value_observed) VALUES
  ('CC(C)(C)CC(C)(C)c1ccc(OCCOCC[N+](C)(C)Cc2ccccc2)cc1.[Cl-] [BENZETHONIUM CHLORIDE]', 15.5),
  ('O=C(Nc1ccc(Br)cc1)c1cc(Br)cc(Br)c1O', 18.17),
  ('CCN(CC)CCOCCC1=CCC2CC1C2(C)C (stereo not given)', 16.83),
  ('CCC(=O)O[C@]1(C(=O)CCl)[C@@H](C)C[C@H]2[C@@H]3CCC4=CC(=O)C=C[C@]4(C)[C@@]3(F)[C@@H](O)C[C@@]21C [CLOBETASOL PROPIONATE]', 18.17);

Q: Return reported BLOOD UREA NITROGEN; argument: Oc1c(Cl)cc(Cl)c(Cl)c1Cc1c(O)c(Cl)cc(Cl)c1Cl
Ans: 15.5
